# credit: PubChem BioAssay AID1159580

test: chemical genetic growth profiling, strain panel (AID 1159580);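 further: tested at 20 µM; growth read once vehicle control cultures reached saturation at 30 °C; 1 = growth at the plate median or of vehicle wells; lower values mean less growth of the strain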; conditions: S. cerevisiae deletion strains, growth OD, locus YOR184W, strain ser1, stronger effect = lower value
In all, about 5,500 compounds went through this assay and about 2,000 (36%) were called active. Not shown: some 18% with an inconclusive outcome. The list shows a part of the results.
The label is MET for normalized growth below 1 and NOT MET for normalized growth equal to or exceeding 1.

Example cases with answers are listed next.
Nc1ccncc1	MET
COc1c2ccoc2nc2c(OC)c(OCC(O)C(C)(C)O)ccc12 (centres undefined)	MET

Attention now turns to another entry.
Asked: Consider OC1=Cc2c(O)cc(O)cc2OC1(O)c1ccc(O)c(O)c1 (centres undefined) . Does its normalized growth lie strictly below 1?
Given back: NOT MET

----------
# normalized growth annotations
assay: chemical genetic growth profiling, strain panel (AID 1159580); conditions: S. cerevisiae deletion strains, growth OD, locus YKL068W, stronger effect = lower value
The whole screen tested about 5,500 compounds, of which about 2,000 (36%) were called active. Not shown: some 18% with an inconclusive outcome. This is one part of the list.
# output: bare number, no unit

Look over these answered cases.
CSc1ccc2c(c1)N(CCC1CCCCN1C)c1ccccc1S2 (stereo unspecified)	1.01
COc1cc([C@@H]2c3cc4c(cc3[C@H](OC(C)=O)[C@H]3COC(=O)[C@@H]23)OCO4)cc(OC)c1OC	1.01
O=c1cc(-c2ccccc2)oc2cc(O)c(O)c(O)c12	0.855
NC(N)=NCCCC(NC(=O)C(N)Cc1ccc(O)cc1)C(=O)O (stereo unspecified)	0.968
COc1cc2c(cc1O)C(Cc1ccc(O)cc1)N(C)CC2 (stereo unspecified)	0.998
CCC(=O)Nc1ccc(Cl)c(Cl)c1	0.999
CCN(CCCc1ccccc1)CCCc1ccccc1	1.01
NC(N)=NCCC[C@@H](NC(=O)[C@@H](N)Cc1ccc(O)cc1)C(=O)O	1.01

Asked: Supply reported normalized growth belonging to this compound: `COc1cc(OC)c(OC)cc1C=O`
Given back: 0.985

Asked: Supply reported normalized growth belonging to this compound: `NC(N)=O`
Given back: 0.992

Asked: Supply reported normalized growth belonging to this compound: CC(=O)OCC(=O)[C@@]1(O)[C@H](OC(C)=O)CC2C3CCC4=CC(=O)C=C[C@]4(C)[C@@]3(F)[C@@H](O)C[C@@]21C (stereo partly specified)
Given back: 0.994

----------
test: chemical genetic growth profiling, strain panel (AID 1159580); settings: S. cerevisiae deletion strains, growth OD, locus YPR167C, strain met16
Out of some 5,500 compounds screened, about 2,000 (36%) were called active. Inconclusive results (about 18%) are left out. Cut-off read from the data, not from the text of the source: active = normalized growth mostly below about 0.91 (no sharp cut-off); inconclusive = no clear call, values can overlap the other calls; inactive = mostly above about 0.92. The list shows a part of the results.
A correct response names exactly one class from true for active, false for inactive

Example cases with answers are listed next.
COc1cc2c(cc1O)C(Cc1ccc(O)cc1)N(C)CC2 (centres undefined)	false
CC1(C)C(O)CC(O)C2(C)C1CC(O)C1(C)C2CCC2(C)C(c3ccoc3)OC(=O)C3OC321 (centres undefined)	false
N#C/C(=C\c1cccc(O)c1)C(=O)O	false

Asked: Hello, I am checking results. What call was entered for CC(=O)O[C@H]1CC[C@]2(C)C3C(=O)[C@@H](OC(C)=O)[C@@]4(C)C(C[C@@H]5O[C@]6(CCC(C)CO6)[C@@H](C)[C@@H]54)C3CC[C@H]2C1 (some centres undefined) ?
Given back: false

Asked: Hello, I am checking results. What call was entered for CC1CCC2(OC1)OC1CC3C4CCC5C[C@@H](O)CCC5(C)C4=CCC3(C)C1[C@@H]2C (some centres undefined) ?
Given back: false

Asked: Hello, I am checking results. What call was entered for `Cc1nc2sccn2c(=O)c1CCN1CCC(=C(c2ccc(F)cc2)c2ccc(F)cc2)CC1` ?
Given back: true

Asked: Hello, I am checking results. What call was entered for `c1ccc2c(c1)CN1CCCC1=N2` ?
Given back: false

Asked: Hello, I am checking results. What call was entered for `COc1cc(OC)c(OC)cc1C=O` ?
Given back: false

Asked: Hello, I am checking results. What call was entered for CC(=O)O[C@H]1CC[C@]2(C)C3=CC(=O)[C@@]4(C)C(C[C@@H]5OC6(OCC(C)CC6Br)[C@@H](C)[C@@H]54)C3CC[C@H]2C1 (some centres undefined) ?
Given back: false

----------
assay: chemical genetic growth profiling, strain panel (AID 1159580); conditions: S. cerevisiae deletion strains, growth OD, locus YFR010W, strain ubp6, stronger effect = lower value
The whole screen tested about 5,500 compounds, of which about 2,000 (36%) were called active. About 18% were inconclusive and are not listed. This is one part of the list.
Quantity: normalized growth
# output: bare number, no unit

Look over these answered cases.
CN(C)CCC(c1ccc(Br)cc1)c1ccccn1 (stereo unspecified)	0.986
O=c1[nH]cnc2[nH]ncc12	1.01
C[C@H](N)[C@H](O)c1cccc(O)c1	1.01
CCCCCC1C(=O)CCC1CC(=O)OC (stereo unspecified)	0.987
COc1cc(S(C)=O)ccc1-c1nc2ncccc2[nH]1 (stereo unspecified)	0.974
CC(=O)O[C@H]1C[C@@H](OC(C)=O)C(C)(C)C2CC(=O)[C@]3(C)C(CC[C@@]4(C)[C@H](c5ccoc5)OC(=O)[C@H]5O[C@]543)[C@]21C (stereo partly specified)	0.981

Asked: Supply reported normalized growth belonging to this compound: `C[C@@H](N)[C@@H](O)c1ccccc1`
Given back: 1

Asked: Supply reported normalized growth belonging to this compound: `N[C@H](Cc1cc(I)c(Oc2ccc(O)c(I)c2)c(I)c1)C(=O)O`
Given back: 0.997

Asked: Supply reported normalized growth belonging to this compound: CC1CCC2(OC1)OC1CC3C4CCC5C[C@@H](O)CCC5(C)C4=CCC3(C)C1[C@@H]2C (stereo partly specified)
Given back: 1

Asked: Supply reported normalized growth belonging to this compound: NC(Cc1ccc(F)cc1)C(=O)O (stereo unspecified)
Given back: 1.01

Asked: Supply reported normalized growth belonging to this compound: `O=c1cc(-c2ccccc2)oc2cc(O)c(O)c(O)c12`
Given back: 0.218

----------
test: chemical genetic growth profiling, strain panel (AID 1159580);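 further: tested at 20 µM; growth read once vehicle control cultures reached saturation at 30 °C; 1 = growth at the plate median or of vehicle wells; lower values mean less growth of the strain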; conditions: S. cerevisiae deletion strains, growth OD, locus YGL086W, strain mad1
About 2,000 (36%) of roughly 5,500 compounds were called active. Roughly 18% stayed inconclusive and do not appear here. Rule as the data show it: active = normalized growth mostly below about 0.91 (no sharp cut-off); inconclusive = no clear call, values can overlap the other calls; inactive = mostly above about 0.92. Some of the results follow.
A correct response names exactly one class from active, inactive

Asked: Hello, I am checking results. What call was entered for `CCCC(CCC)C(=O)O` ?
Given back: inactive

Asked: Hello, I am checking results. What call was entered for CCC(=O)c1ccc2c(c1)N(CC(C)N(C)C)c1ccccc1S2 (centres undefined) ?
Given back: inactive

Asked: Hello, I am checking results. What call was entered for C=C1C(C2(C)C=CC(=O)C(C)(C)C2CC(=O)OC)CC[C@@]2(C)[C@H](c3ccoc3)OC(=O)C3OC132 (some centres undefined) ?
Given back: inactive

Asked: Hello, I am checking results. What call was entered for CSc1ccc2c(c1)N(CCC1CCCCN1C)c1ccccc1S2 (centres undefined) ?
Given back: active

----------
test: chemical genetic growth profiling, strain panel (AID 1159580);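 further: tested at 20 µM; growth read once vehicle control cultures reached saturation at 30 °C; 1 = growth at the plate median or of vehicle wells; lower values mean less growth of the strain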; details: S. cerevisiae deletion strains, growth OD, locus YJL168C, strain set2, stronger effect = lower value
Screen size: about 5,500 compounds; about 2,000 (36%) were called active. Not shown: some 18% with an inconclusive outcome. Some of the results follow.
# normalized growth annotations
# output: bare number, no unit

Look over these answered cases.
Nc1cc(-c2ccncc2)c[nH]c1=O	0.986
CCCC(CCC)C(=O)O	0.986
CN(C(=O)CN(CCO)CC(=O)N(C)C(C)(C)Cc1ccccc1)C(C)(C)Cc1ccccc1	0.989
S=P(N1CC1)(N1CC1)N1CC1	0.999
Cc1cccc(Nc2ccncc2S(=O)(=O)NC(=O)NC(C)C)c1	1.02

Asked: Supply reported normalized growth belonging to this compound: `COC(=O)CCCOc1ccc(Cl)cc1Cl`
Given back: 1.01

Asked: Supply reported normalized growth belonging to this compound: `CO[C@]12C[C@@H](COC(=O)c3cncc(Br)c3)CN(C)[C@@H]1Cc1cn(C)c3cccc2c13`
Given back: 1

Asked: Supply reported normalized growth belonging to this compound: `NC(N)=O`
Given back: 0.98

----------
test: chemical genetic growth profiling, strain panel (AID 1159580);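 further: tested at 20 µM; growth read once vehicle control cultures reached saturation at 30 °C; 1 = growth at the plate median or of vehicle wells; lower values mean less growth of the strain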; conditions: S. cerevisiae deletion strains, growth OD, locus YOL147C, strain pex11, stronger effect = lower value
Among all 5,500 compounds or so, about 2,000 (36%) were called active. Roughly 18% stayed inconclusive and do not appear here. This is one part of the list.
Quantity: normalized growth

CCOC(=O)[C@H](CCc1ccccc1)N[C@@H](C)C(=O)N1Cc2ccccc2C[C@H]1C(=O)O	1.01 (inactive)

Asked: Supply reported normalized growth belonging to this compound: `CNCCCN1c2ccccc2CCc2ccccc21`
Given back: 1 (inactive)

Asked: Supply reported normalized growth belonging to this compound: `CCN(CCCc1ccccc1)CCCc1ccccc1`
Given back: 1.03 (inactive)
